Hello, the source for this data is paper PMC4158885, in case you need it.

TESTED_TARGET: T1, ctPan3 PKC (Chaetomium thermophilum, UniProt G0S0Y3 205-640)
T1 sequence: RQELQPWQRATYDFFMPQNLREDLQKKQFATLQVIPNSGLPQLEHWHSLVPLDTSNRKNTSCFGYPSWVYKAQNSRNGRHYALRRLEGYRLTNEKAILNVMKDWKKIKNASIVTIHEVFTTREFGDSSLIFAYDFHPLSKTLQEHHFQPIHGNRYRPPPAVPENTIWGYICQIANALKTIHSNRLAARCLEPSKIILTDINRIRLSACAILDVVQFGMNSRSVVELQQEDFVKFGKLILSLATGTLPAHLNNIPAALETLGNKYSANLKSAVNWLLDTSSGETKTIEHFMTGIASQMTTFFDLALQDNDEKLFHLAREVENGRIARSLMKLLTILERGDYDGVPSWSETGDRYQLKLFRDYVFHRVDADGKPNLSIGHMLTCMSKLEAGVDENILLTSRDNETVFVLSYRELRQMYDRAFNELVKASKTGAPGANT
ASSAY_NAME: fluorescence polarization; 1 mM Mg2+; FP: 10 mM Tris pH 8.0, 50 mM NaCl, 1 mM MgCl2, 5 mM beta-mercaptoethanol, 20 nM RNA, temperature not stated; EMSA: deadenylation assay buffer (composition not in material), 0.1-3 uM complex, 40 ng RNA in 10 ul, 15 min RT; NMR: 150 uM protein, 150 uM RNA (HSQC)
TEST_SETTINGS: protein: recombinant; tags: GST-TEV construct (pGEX-TEV); chain copies: 2; label: 5' Cy3
binders and their reported pKd
Schema: pKd number; meaning minus log10 of the concentration expressed in molar units.

{"BINDER": "UUUUUUUUUUUUUUU (ssRNA) [Cy3-U15 RNA]", "pKd": 5.80}
{"BINDER": "AAAAAAAAAAAAAAAAAAAAAAAAA (ssRNA) [Cy3-A25 RNA]", "pKd": 6.21}
{"BINDER": "CCCCCCCCCCCCCCC (ssRNA) [Cy3-C15 RNA]", "pKd": 5.66}

Lab note: measured pKd of AAAAAAAAAAAAAAA (ssRNA) [Cy3-A15 RNA] was 5.68
